B1: MFF (parent)
chain: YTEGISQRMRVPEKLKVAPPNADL

# Variants of: B1
# measurement-description: protein stability index of a GFP-peptide fusion (GPS, HEK-293T) (PSI 1-6); higher = more stable;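 also: lentivirally expressed fusions sorted by FACS into six bins by GFP to DsRed ratio, PSI derived from sequencing read proportions per bin multiplied by bin number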
# particulars: c terminus: a fixed tail appended
Label class 0 if protein stability index falls below 3; label class 1 in every other case.

Illustrative cases are given below, each with its answer.
| variant-descriptor | class-name |
| --- | --- |
| R10N | class 0 |
| P20S | class 0 |
| R10Y | class 0 |
| S6M | class 0 |
| K14I | class 0 |

Can E3W be said to have protein stability index at or above 3?
class 0

Can I5C be said to have protein stability index at or above 3?
class 1

Can P20Y be said to have protein stability index at or above 3?
class 0
